system.name: T1, human CD73 expressed on the surface of cells (human, UniProt P21589 27-549)
T1 sequence: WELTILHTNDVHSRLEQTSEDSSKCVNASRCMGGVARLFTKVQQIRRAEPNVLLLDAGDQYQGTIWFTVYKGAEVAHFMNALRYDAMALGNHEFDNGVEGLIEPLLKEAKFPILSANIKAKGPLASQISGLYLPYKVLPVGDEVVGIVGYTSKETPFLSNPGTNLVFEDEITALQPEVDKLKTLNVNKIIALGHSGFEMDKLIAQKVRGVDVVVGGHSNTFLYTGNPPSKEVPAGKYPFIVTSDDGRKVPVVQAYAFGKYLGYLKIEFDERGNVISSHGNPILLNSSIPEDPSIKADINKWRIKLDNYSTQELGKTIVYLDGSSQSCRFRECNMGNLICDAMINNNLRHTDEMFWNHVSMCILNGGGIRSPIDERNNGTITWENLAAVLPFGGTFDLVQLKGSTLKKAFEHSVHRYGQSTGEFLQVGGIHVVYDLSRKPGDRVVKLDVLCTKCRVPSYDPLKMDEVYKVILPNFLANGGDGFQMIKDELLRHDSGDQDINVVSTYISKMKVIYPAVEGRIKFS
measurement.protocol: cell-based or functional assay
readout.kind: IC50 (nM), cell-based CD73 activity assay (A375 cells)
Express your answer in nM, writing the number without its unit.

Consider the binder 60A9-H5L1 (antibody, V domains shown) VH: EVQLVESGGGLVQPGQSLKLSCKASGYAFSSYWMNWVKQRPGKGLEWIGQIYPGDGDTYYSGKFKGRATLSADKSKNTAYLQLNNLRAEDTAVYYCAREAIYYGNYVFTYWGQGTLVTVSS VL: DIQMTQSPSLLSASLGDRVTITCKSSQSLLNSSNQKNYLAWYQQKPGQSPKLLIYFASTRDSGVPDRFSGSGSGTDFTLTISSLEPEDFATYYCQQHYSTPLTFGGGTKLEIK and give its recorded IC50 (nM), cell-based CD73 activity assay (A375 cells). 61
